Data origin, for the record: paper PMC8877291

Target: dopamine D2s receptor (Homo sapiens, UniProt P14416)
Sequence (P14416 1-414 isoform P14416-2): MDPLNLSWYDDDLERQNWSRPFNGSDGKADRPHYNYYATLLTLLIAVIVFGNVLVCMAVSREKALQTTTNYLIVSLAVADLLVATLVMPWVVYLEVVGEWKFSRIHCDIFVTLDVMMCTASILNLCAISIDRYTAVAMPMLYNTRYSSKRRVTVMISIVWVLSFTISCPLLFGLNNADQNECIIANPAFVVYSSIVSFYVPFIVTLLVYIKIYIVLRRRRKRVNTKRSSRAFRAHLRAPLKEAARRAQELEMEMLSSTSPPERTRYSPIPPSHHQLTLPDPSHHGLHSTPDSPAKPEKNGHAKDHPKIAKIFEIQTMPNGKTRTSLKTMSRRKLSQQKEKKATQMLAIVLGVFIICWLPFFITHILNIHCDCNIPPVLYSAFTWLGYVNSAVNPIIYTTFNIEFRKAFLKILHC
Test: Dopamine D2s receptor competition binding ([3H]spiperone)
observation_type: Ki (nM)
Kindly provide the numeric value in nM only, without the unit symbol.

compound="Cc1cc(=O)oc2cc(OCCCCN3CCN(c4ncccc4-c4ccncc4)CC3)ccc12 [Compound 12b]" measured_number=17
compound="CC1Oc2ccc(OCCCN3CCN(c4ncccc4-c4ccncc4)CC3)cc2NC1=O (stereo not drawn)" measured_number=388
compound="CC1Oc2ccc(OCCCCN3CCN(c4ncccc4-c4ccncc4)CC3)cc2NC1=O (stereo not drawn)" measured_number=9.08

Shift focus to the following entry.
Incoming: I am curious: what Ki value has been reported for Cc1cc(=O)oc2cc(OCCCN3CCN(c4ncccc4-c4ccncc4)CC3)ccc12 [Compound 12a] ?
Outgoing: 300

====

Ki, serotonin 5-HT2A receptor (Homo sapiens), per-entry values.
Kindly provide the numeric value in nM only, without the unit symbol.

molecule="CC1Oc2ccc(OCCCN3CCN(c4ncccc4-c4ccncc4)CC3)cc2NC1=O (centres unmarked)" measured_number=782
molecule="Cn1c(=O)cnn(CCCCN2CCN(c3ccc(F)cc3-c3ccc(C#N)cc3)CC2)c1=O [Compound 10b]" measured_number=80.7
molecule="Cc1cc(=O)oc2cc(OCCCN3CCN(c4ncccc4-c4ccncc4)CC3)ccc12 [Compound 12a]" measured_number=315
molecule="CC1Oc2ccc(OCCCCN3CCN(c4ncccc4-c4ccncc4)CC3)cc2NC1=O (centres unmarked)" measured_number=611

Shift focus to the following entry.
Incoming: Please state recorded Ki (tested on serotonin 5-HT2A receptor (Homo sapiens)) of Cn1c(=O)cnn(CCCN2CCN(c3ccc(F)cc3-c3ccc(C#N)cc3)CC2)c1=O [Compound 10a]
Sequence (P28223 whole entry): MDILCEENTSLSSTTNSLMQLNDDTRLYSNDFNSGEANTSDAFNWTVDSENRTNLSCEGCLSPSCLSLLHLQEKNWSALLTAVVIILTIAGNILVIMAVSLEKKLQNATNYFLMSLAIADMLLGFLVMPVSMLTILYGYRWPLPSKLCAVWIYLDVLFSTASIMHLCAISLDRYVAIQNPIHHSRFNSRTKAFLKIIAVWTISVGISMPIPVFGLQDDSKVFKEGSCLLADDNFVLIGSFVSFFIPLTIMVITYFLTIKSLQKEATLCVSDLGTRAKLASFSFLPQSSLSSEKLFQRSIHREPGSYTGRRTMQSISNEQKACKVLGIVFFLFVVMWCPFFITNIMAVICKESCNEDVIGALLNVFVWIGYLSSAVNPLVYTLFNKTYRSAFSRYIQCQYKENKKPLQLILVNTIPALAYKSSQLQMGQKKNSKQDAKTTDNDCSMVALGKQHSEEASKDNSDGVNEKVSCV
Outgoing: 96.8

====

# Ki values compiled below
Biological target: dopamine D5 receptor (Homo sapiens)
Sequence (P21918 whole entry): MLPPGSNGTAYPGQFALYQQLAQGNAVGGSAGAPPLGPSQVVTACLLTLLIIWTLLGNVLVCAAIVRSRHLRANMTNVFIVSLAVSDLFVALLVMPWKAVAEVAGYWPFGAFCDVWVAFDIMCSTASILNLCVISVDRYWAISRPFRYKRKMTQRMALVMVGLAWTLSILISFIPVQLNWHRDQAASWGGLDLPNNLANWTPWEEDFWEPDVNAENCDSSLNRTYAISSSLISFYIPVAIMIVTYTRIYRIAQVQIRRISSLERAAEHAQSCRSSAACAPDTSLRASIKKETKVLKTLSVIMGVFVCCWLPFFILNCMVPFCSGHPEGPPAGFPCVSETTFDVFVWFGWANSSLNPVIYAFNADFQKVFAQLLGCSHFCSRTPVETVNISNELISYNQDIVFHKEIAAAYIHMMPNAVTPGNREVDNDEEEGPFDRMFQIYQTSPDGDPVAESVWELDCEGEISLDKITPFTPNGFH

These recorded examples may help you get a feel for the data.
compound="Cc1cc(=O)oc2cc(OCCCCN3CCN(c4ncccc4-c4ccncc4)CC3)ccc12 [Compound 12b]" observation_type=Ki result="2.73 µM"
compound="Cn1c(=O)cnn(CCCN2CCN(c3ncccc3-c3ccncc3)CC2)c1=O [Compound 11a]" observation_type=Ki result="> 10 µM"
compound="CC1Oc2ccc(OCCCCN3CCN(c4ncccc4-c4ccncc4)CC3)cc2NC1=O (centres unmarked)" observation_type=Ki result="8.2 µM"
compound="Cn1c(=O)cnn(CCCN2CCN(c3ccc(F)cc3-c3ccc(C#N)cc3)CC2)c1=O [Compound 10a]" observation_type=Ki result="0.18 µM"
compound="CC1Oc2ccc(OCCCN3CCN(c4ncccc4-c4ccncc4)CC3)cc2NC1=O (centres unmarked)" observation_type=Ki result="7.41 µM"

Incoming: Please state recorded Ki (tested on dopamine D5 receptor (Homo sapiens)) of Cn1c(=O)cnn(CCCCN2CCN(c3ncccc3-c3ccncc3)CC2)c1=O [Compound 11b]
Outgoing: > 10 µM

Incoming: Please state recorded Ki (tested on dopamine D5 receptor (Homo sapiens)) of Cn1c(=O)cnn(CCCCN2CCN(c3ccc(F)cc3-c3ccc(C#N)cc3)CC2)c1=O [Compound 10b]
Outgoing: 0.101 µM

Incoming: Please state recorded Ki (tested on dopamine D5 receptor (Homo sapiens)) of Cc1cc(=O)oc2cc(OCCCN3CCN(c4ncccc4-c4ccncc4)CC3)ccc12 [Compound 12a]
Outgoing: > 10 µM

====

Experiment: Cytotoxicity in SH-SY5Y cells (MTT assay)
Format: cell-based, human
Details: human, SH-SY5Y neuroblastoma cells, MTT, 0.1 to 100 μM, ± S.E.M.
# EC50 at 48 h values compiled below
Kindly provide the numeric value in µM only, without the unit symbol.

Incoming: I am curious: what EC50 at 48 h value has been reported for CC1Oc2ccc(OCCCCN3CCN(c4ncccc4-c4ccncc4)CC3)cc2NC1=O (centres unmarked) ?
Outgoing: 25.5

Incoming: I am curious: what EC50 at 48 h value has been reported for Cn1c(=O)cnn(CCCCN2CCN(c3ccc(F)cc3-c3ccc(C#N)cc3)CC2)c1=O [Compound 10b] ?
Outgoing: 34.3

Incoming: I am curious: what EC50 at 48 h value has been reported for CC1Oc2ccc(OCCCN3CCN(c4ncccc4-c4ccncc4)CC3)cc2NC1=O (centres unmarked) ?
Outgoing: 32.9

====

pKi, serotonin 5-HT7 receptor (5-HT7A) (Homo sapiens), per-entry values.
API: returns pKi as number; meaning -log10 of concentration in mol/L.

These recorded examples may help you get a feel for the data.
molecule="CC1Oc2ccc(OCCCN3CCN(c4ncccc4-c4ccncc4)CC3)cc2NC1=O (centres unmarked)" measured_number=7.97
molecule="CC1Oc2ccc(OCCCCN3CCN(c4ncccc4-c4ccncc4)CC3)cc2NC1=O (centres unmarked)" measured_number=8.03
molecule="Cn1c(=O)cnn(CCCN2CCN(c3ncccc3-c3ccncc3)CC2)c1=O [Compound 11a]" measured_number=7.35

Incoming: Please state recorded pKi (tested on serotonin 5-HT7 receptor (5-HT7A) (Homo sapiens)) of Cc1cc(=O)oc2cc(OCCCN3CCN(c4ncccc4-c4ccncc4)CC3)ccc12 [Compound 12a]
Sequence (P34969 1-445 isoform P34969-2): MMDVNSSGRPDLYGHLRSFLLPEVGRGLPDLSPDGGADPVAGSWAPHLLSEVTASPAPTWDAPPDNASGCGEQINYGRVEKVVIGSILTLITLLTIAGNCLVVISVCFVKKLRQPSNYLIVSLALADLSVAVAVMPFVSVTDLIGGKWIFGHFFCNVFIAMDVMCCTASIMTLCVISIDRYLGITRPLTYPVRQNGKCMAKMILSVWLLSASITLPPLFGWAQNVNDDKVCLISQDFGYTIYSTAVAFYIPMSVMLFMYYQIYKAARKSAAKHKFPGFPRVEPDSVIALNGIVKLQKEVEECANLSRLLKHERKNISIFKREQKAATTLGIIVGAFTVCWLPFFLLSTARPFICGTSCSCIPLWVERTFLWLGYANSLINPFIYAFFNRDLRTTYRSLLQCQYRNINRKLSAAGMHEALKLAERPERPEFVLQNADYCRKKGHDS
Outgoing: 7.37

Incoming: Please state recorded pKi (tested on serotonin 5-HT7 receptor (5-HT7A) (Homo sapiens)) of Cn1c(=O)cnn(CCCCN2CCN(c3ccc(F)cc3-c3ccc(C#N)cc3)CC2)c1=O [Compound 10b]
Outgoing: 7.44

Incoming: Please state recorded pKi (tested on serotonin 5-HT7 receptor (5-HT7A) (Homo sapiens)) of Cn1c(=O)cnn(CCCN2CCN(c3ccc(F)cc3-c3ccc(C#N)cc3)CC2)c1=O [Compound 10a]
Outgoing: 7.34

Incoming: Please state recorded pKi (tested on serotonin 5-HT7 receptor (5-HT7A) (Homo sapiens)) of Cn1c(=O)cnn(CCCCN2CCN(c3ncccc3-c3ccncc3)CC2)c1=O [Compound 11b]
Outgoing: 7.10

Incoming: Please state recorded pKi (tested on serotonin 5-HT7 receptor (5-HT7A) (Homo sapiens)) of Cc1cc(=O)oc2cc(OCCCCN3CCN(c4ncccc4-c4ccncc4)CC3)ccc12 [Compound 12b]
Outgoing: 7.28

====

Protein target, amino acids: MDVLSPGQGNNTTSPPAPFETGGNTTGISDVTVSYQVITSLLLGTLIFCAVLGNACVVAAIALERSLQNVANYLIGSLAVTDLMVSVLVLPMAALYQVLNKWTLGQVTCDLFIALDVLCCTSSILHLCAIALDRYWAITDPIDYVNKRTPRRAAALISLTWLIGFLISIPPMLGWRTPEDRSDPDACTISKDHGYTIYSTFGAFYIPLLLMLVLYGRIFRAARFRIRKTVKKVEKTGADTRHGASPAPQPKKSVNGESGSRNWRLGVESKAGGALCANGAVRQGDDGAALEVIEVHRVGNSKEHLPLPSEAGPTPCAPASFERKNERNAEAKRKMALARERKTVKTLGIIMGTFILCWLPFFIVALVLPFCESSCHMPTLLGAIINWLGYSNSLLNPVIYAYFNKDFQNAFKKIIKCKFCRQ
# pKi values compiled below
API: returns pKi as number; meaning -log10 of concentration in mol/L.

These recorded examples may help you get a feel for the data.
compound=COc1ccc(-c2cc(F)ccc2N2CCN(CCCCn3ncc(=O)n(C)c3=O)CC2)cc1 observation_type=pKi measured_number=7.62
compound="Cc1cc(=O)oc2cc(OCCCN3CCN(c4ncccc4-c4ccncc4)CC3)ccc12 [Compound 12a]" observation_type=pKi measured_number=7.38
compound=COc1ccc(-c2cc(F)ccc2N2CCN(CCCn3ncc(=O)n(C)c3=O)CC2)cc1 observation_type=pKi measured_number=6.19

Incoming: I am curious: what pKi value has been reported for Cn1c(=O)cnn(CCCN2CCN(c3ncccc3-c3ccncc3)CC2)c1=O [Compound 11a] ?
Outgoing: 6.57

Incoming: I am curious: what pKi value has been reported for Cn1c(=O)cnn(CCCN2CCN(c3ccc(F)cc3-c3ccc(C#N)cc3)CC2)c1=O [Compound 10a] ?
Outgoing: 5.96

Incoming: I am curious: what pKi value has been reported for Cn1c(=O)cnn(CCCCN2CCN(c3ccc(F)cc3-c3ccc(C#N)cc3)CC2)c1=O [Compound 10b] ?
Outgoing: 7.36

====

Ki, dopamine D3 receptor (Homo sapiens, UniProt P35462), per-entry values.

These recorded examples may help you get a feel for the data.
compound="CC1Oc2ccc(OCCCCN3CCN(c4ncccc4-c4ccncc4)CC3)cc2NC1=O (stereo not shown) [Compound 8b]" result="0.691 µM"
compound="Cn1c(=O)cnn(CCCN2CCN(c3ncccc3-c3ccncc3)CC2)c1=O [Compound 11a]" result="> 10 µM"
compound="COc1ccc(-c2cc(F)ccc2N2CCN(CCCn3ncc(=O)n(C)c3=O)CC2)cc1 [Compound 9a]" result="> 10 µM"

Shift focus to the following entry.
Incoming: Please state recorded Ki (tested on dopamine D3 receptor (Homo sapiens, UniProt P35462)) of Cn1c(=O)cnn(CCCN2CCN(c3ccc(F)cc3-c3ccc(C#N)cc3)CC2)c1=O [Compound 10a]
Sequence (P35462 whole entry): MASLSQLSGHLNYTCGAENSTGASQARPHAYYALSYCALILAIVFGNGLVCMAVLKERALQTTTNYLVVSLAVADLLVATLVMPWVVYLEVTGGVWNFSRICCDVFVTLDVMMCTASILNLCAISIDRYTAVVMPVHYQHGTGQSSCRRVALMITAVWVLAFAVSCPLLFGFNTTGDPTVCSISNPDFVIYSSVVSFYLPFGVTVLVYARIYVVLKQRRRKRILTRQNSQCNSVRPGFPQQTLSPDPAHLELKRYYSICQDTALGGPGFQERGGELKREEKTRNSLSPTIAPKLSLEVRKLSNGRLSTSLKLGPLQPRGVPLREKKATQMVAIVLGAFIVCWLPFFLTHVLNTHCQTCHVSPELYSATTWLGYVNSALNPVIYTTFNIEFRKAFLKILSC
Outgoing: > 10 µM

====

# pKi values compiled below
Molecular target: dopamine D1 receptor (Homo sapiens)
Sequence (P21728 whole entry): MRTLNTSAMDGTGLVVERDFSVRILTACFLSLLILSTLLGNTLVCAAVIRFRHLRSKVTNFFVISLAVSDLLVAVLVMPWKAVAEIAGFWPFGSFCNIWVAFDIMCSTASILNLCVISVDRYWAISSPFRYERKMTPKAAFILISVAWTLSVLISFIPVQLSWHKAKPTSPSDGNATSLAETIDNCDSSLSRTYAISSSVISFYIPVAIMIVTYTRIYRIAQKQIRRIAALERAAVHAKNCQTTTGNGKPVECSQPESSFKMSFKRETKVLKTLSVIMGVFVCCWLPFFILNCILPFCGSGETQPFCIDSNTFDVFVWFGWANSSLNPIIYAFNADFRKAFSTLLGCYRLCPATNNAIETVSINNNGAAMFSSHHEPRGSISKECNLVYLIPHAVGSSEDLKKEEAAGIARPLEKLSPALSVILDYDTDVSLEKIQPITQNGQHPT
Assay: Dopamine D1 receptor competition binding ([3H]-SCH23390)
Settings: HEK-293 membranes, [3H]-SCH23390 0.3 nM, mean (CI 95%), read-out: Affinity Ki D1
API: returns pKi as number; meaning -log10 of concentration in mol/L.

molecule="Cn1c(=O)cnn(CCCCN2CCN(c3ccc(F)cc3-c3ccc(C#N)cc3)CC2)c1=O [Compound 10b]" observation_type=pKi measured_number=6.85
molecule="CC1Oc2ccc(OCCCCN3CCN(c4ncccc4-c4ccncc4)CC3)cc2NC1=O (stereo not shown)" observation_type=pKi measured_number=5.77
molecule="Cc1cc(=O)oc2cc(OCCCCN3CCN(c4ncccc4-c4ccncc4)CC3)ccc12 [Compound 12b]" observation_type=pKi measured_number=5.82
molecule=COc1ccc(-c2cc(F)ccc2N2CCN(CCCn3ncc(=O)n(C)c3=O)CC2)cc1 observation_type=pKi measured_number=6.71
molecule="Cn1c(=O)cnn(CCCN2CCN(c3ccc(F)cc3-c3ccc(C#N)cc3)CC2)c1=O [Compound 10a]" observation_type=pKi measured_number=6.98

Incoming: Please state recorded pKi (tested on dopamine D1 receptor (Homo sapiens)) of Cc1cc(=O)oc2cc(OCCCN3CCN(c4ncccc4-c4ccncc4)CC3)ccc12 [Compound 12a]
Outgoing: 5.66

Incoming: Please state recorded pKi (tested on dopamine D1 receptor (Homo sapiens)) of COc1ccc(-c2cc(F)ccc2N2CCN(CCCCn3ncc(=O)n(C)c3=O)CC2)cc1
Outgoing: 7.05

Incoming: Please state recorded pKi (tested on dopamine D1 receptor (Homo sapiens)) of CC1Oc2ccc(OCCCN3CCN(c4ncccc4-c4ccncc4)CC3)cc2NC1=O (stereo not shown)
Outgoing: 5.20
